Reference source: patent US20250243286A1

# assay-system: ActRIIA and ActRIIB (on TGFB/SMAD SBE Reporter HEK293 cells) (human)
# Sequence (chain, as listed by the source, chain 1 of 2): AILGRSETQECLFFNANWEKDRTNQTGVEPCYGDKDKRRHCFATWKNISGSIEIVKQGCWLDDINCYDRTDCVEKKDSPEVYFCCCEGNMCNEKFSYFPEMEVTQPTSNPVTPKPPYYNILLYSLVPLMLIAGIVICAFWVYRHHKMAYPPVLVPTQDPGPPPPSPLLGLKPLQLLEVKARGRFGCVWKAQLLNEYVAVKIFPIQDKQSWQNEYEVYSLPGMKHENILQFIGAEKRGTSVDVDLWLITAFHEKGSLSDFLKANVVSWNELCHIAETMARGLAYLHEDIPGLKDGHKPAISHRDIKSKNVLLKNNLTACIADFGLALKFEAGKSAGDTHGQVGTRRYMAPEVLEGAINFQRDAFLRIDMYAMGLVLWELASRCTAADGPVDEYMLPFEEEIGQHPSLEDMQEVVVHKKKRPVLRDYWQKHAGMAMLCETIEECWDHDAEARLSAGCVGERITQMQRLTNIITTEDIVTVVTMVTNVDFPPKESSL
# Sequence (chain, as listed by the source, chain 2 of 2): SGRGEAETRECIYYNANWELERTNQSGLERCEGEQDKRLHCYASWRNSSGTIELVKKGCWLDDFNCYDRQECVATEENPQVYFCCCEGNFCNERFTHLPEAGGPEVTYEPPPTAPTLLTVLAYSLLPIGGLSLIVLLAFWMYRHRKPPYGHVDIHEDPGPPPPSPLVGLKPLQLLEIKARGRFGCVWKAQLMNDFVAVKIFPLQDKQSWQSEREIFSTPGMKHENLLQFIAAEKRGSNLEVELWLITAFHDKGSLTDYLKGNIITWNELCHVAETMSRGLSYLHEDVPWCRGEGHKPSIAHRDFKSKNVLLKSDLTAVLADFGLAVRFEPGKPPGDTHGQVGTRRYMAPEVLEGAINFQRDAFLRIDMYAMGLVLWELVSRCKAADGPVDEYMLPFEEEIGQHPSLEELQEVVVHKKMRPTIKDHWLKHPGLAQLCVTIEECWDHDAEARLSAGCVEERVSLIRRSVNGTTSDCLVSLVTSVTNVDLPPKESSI
# procedure-summary: cell-based or functional assay
This listing pairs binders with measured IC50 [nM] (assay not given).

binder	IC50 [nM] (assay not given) [nM]
Antibody Rippla (antibody, V domains shown, full-length IgG; also called Ripp1a) VH: QVQLVQSGAEVRKPGASVKVSCKASGYTFTSSYINWVRQAPGQGLEWMGTINPVSGSTSYAQKFQGRVTMTRDTSISTAYMELSRLRSDDTAVYYCARGGWFDYWGQGTLVTVSS VL: QSALTQPASVSGSPGQSITISCTGTSSDVGSYNRVNWYQQHPGKAPKLMIYGVSKRESGVSNRFSGSKSGNTASLTISGLQAEDEADYYCGTFAGGRYYGVFGGGTKLTVL	0.0209
Antibody Biiramooscht (antibody, V domains shown, full-length IgG) VH: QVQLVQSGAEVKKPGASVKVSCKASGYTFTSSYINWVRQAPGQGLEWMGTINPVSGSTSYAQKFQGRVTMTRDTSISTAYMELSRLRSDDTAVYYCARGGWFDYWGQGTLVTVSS VL: QSALTQPASVSGSPGQSITISCTGTSSDVGSYNYVNWYQQHPGKAPKLMIYGVSKRESGVSNRFSGSKSGNTASLTISGLQAEDEADYYCGTFAGGAYYGVFGGGTKLTVL	0.086
Bimagrumab (antibody, V domains shown) VH: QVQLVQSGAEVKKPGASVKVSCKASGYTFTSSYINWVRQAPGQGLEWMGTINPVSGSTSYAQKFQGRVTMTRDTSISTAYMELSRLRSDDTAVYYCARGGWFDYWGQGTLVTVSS VL: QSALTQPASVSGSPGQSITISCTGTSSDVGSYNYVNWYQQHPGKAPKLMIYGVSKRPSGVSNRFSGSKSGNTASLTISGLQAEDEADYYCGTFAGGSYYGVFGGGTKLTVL	0.517
Antibody Springerle (antibody, V domains shown, full-length IgG) VH: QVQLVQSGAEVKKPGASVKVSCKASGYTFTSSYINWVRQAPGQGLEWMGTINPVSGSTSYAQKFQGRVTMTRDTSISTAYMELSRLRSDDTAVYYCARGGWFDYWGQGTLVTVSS VL: QSALTQPASVSGSPGQSITISCTGTSSDVGSYNYVNWYQQHPGKAPKLMIYGVSKRESGVSNRFSGSKSGNTASLTISGLQAEDEADYYCGTFAGGSYRGVFGGGTKLTVL	0.0946
